Molecular target: T1, human ROR1 Frizzled-His domain protein (amino acid sequence at positions 165-305, Acrobiosystems, RO1-H5222) (human, UniProt Q01973 165-305)
T1 construct: also called Human ROR1 Frizzled-His protein; not shown: His tag
T1 sequence (Q01973 165-305 limits assumed, form in doubt): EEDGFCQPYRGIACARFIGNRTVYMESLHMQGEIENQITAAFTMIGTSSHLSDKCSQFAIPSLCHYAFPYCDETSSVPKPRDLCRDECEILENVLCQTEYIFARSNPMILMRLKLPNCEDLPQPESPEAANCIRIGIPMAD
Assay: SPR Biacore T200, method as Example 6 (antibody Fc-captured, antigen as analyte)
Overview of recorded Kd for various binders
The figure you give is taken to be in nM; do not add the unit.

The examples below pair each entry with its known result.
Query: Look up Kd: single domain antibody AHP15662-VHH4-Variant1 (Fc fusion, Fc format is inferred; not shown: human IgG1 Fc; vector and li) EVQLVESGGGLVQPGGSLRLSCAASYYISRFYAVGWYRQAPGKQRELVARISSGGWTYYADSVKGRFTISIDNSKNTLYLQMNSLRAEDTAVYYCNARNLWGQGTLVTVSS
Response: 46.3

Query: Look up Kd: single domain antibody AHF21721 (Fc fusion, Fc format is inferred; not shown: human IgG1 Fc; vector and li) EVQLVESGGGLVQPGGSLRLSCAASGFISRFYAMGWYRQAPGKQRELVARISSMGWTYYADSVKGRFTISIDNSKNTLYLQMNSLRAEDTAVYYCNARNLWGQGTLVTVSS
Response: 15.6

Query: Look up Kd: single domain antibody AHF21711 (Fc fusion, Fc format is inferred; not shown: human IgG1 Fc; vector and li) EVQLVESGGGLVQPGGSLRLSCAASHSISRFYAIGWYRQAPGKQRELVARISSMGRTYYADSVKGRFTISIDNSKNTLYLQMNSLRAEDTAVYYCNARNLWGQGTLVTVSS
Response: 19.3

---
Query: Look up Kd: single domain antibody AHF21719 (Fc fusion, Fc format is inferred; not shown: human IgG1 Fc; vector and li) EVQLVESGGGLVQPGGSLRLSCAASGYISRFYAMGWYRQAPGKQRELVARISSGGWTYYADSVKGRFTISIDNSKNTLYLQMNSLRAEDTAVYYCNARNLWGQGTLVTVSS
Response: 21.6
